- Tested on: cyclin D1 in SKOV3 cells
- method_summary: Concentration- and time-dependent changes in cyclin D1 in SKOV3 cells
- Format: cell-based, human
- experimental_setup: Homo sapiens, SK-OV-3, read-out: IC50 of cyclin D1 reduction
assay_endpoint: IC50

Lookup: Any idea what its IC50 is? The compound is CC1(C)CC(C)(C)c2cc(NC(=S)Nc3ccc([N+](=O)[O-])cc3)ccc2S1 [SHetA2]
Found: 4 to 5 µM
